Data provenance: patent US12319739

# Tgt: T1, cMSLN-His-Avi (cynomolgus, single biotin on the Avi tag in the biotinylated form)
# T1 construct: Monomeric; also called cyno MSLN-His-Avi; cMSLN-Avi-His
# T1 chain: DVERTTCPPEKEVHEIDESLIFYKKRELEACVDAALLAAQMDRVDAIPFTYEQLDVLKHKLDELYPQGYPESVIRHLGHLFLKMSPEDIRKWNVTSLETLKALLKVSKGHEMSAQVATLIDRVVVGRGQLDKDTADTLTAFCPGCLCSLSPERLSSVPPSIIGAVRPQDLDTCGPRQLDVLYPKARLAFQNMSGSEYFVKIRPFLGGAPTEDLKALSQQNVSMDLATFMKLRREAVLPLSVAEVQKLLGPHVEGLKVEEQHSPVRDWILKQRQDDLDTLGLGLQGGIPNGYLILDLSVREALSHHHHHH
# Assay details: SPR, mAb2 captured on Protein G, cMSLN-His-Avi in solution
Recorded metric: pKd
Reminder that pKd means the negative base-10 logarithm of the concentration expressed in mol/L.

For FS22-172-003-AA/FS28-024-052 (bispecific antibody, human IgG1, kappa, L234A L235A, V domains shown, IgG1 mAb^2 with LALA) VH: EVQLLESGGGLVQPGGSLRLSCAASGFTLSYSSMSWVRQAPGKGLEWVSFITPSTGYTHYADSVKGRFTISRDNSKNTLYLQMNSLRAEDTAVYYCARRALLFDYWGQGTLVTVSS VL: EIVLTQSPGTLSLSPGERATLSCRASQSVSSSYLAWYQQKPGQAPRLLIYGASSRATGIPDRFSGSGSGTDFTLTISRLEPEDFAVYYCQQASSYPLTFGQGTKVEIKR , what is its reported pKd? 6.62

# lookup: pKd of FS22-172-003-AA/FS28-256-024 (bispecific antibody, human IgG1, kappa, L234A L235A, V domains shown, IgG1 mAb^2 with LALA) VH: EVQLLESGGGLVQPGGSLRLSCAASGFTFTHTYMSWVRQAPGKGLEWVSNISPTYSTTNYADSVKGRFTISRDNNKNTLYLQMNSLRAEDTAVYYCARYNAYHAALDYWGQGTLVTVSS VL: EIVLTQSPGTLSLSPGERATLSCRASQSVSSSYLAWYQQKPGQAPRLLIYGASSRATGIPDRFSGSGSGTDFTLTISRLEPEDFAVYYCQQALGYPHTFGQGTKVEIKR 7.24
